assay: label from the status in PepcDB records;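 further: failed if final PepcDB status was selected cloned or expressed and not failed if soluble or beyond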
attribute-measured: protein production

Some solved entries appear below for comparison.
>>> data_value("MVKVELVYIANSKNCLHYKMDLKQGATVEEALIESNIYSTCPETRELPVGVYGKRVSVDQVLKEGDRIEIYRPLILDPKEKRRKLAQFKK")
"failed"
>>> data_value("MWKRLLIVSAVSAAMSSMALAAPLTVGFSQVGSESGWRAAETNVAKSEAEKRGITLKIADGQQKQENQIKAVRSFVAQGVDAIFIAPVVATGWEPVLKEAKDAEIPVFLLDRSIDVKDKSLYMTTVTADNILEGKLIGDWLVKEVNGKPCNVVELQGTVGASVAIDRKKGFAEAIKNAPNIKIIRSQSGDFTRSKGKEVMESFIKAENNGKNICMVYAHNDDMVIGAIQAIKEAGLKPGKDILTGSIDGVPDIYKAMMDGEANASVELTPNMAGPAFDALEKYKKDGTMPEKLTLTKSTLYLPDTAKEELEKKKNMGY")
"failed"
>>> data_value("IGIWFTGTDGRYHFVNKTFCNLVGIEEEDMLNTPSSNLAELLGSEIAHNCLDSDRAALGQDLAHVSYETIPRLNAKPYLLEITKVKLKNTR")
"failed"
>>> data_value("MNPGAYAVPSSAQGWTGTESIGKSSAVNHHRDDGGQEMAGALRKMAVYLGLVEDDRYDHRYADEYDDFEDFDEPLDERPSRNRSPRDDSRNNAVTDSSDHSPSRNERRSPAPAPATADLARITTLHPRTYNEARTIGEHFREGIPVIMNLTEMVDSDAKRLVDFAAGLIFGLHGSIERVTNKVFLLSPANVEVTAEDKARIAERGFFNQS")
"failed"
>>> data_value("MNNRVEILYCTQCRWLLRATWMTQELLTTFDQEIGELTLKPGTGGLFEVWVNGKRIWSRKEQGGFPEISELKRLVRDEVAPGRDLGHADQKGKTGASPAPAEP")
"failed"
>>> data_value("MIELDYLTIAFGGAIGAVLRYLVSRTINSLLPFSYIPLGTIIVNSVGSFFLSFLMFAAIEKVPLSKEAILFFGTGLLGAFTTFSTFTYETLSLIEESPARGVAYALANLLFAFTCAYFGMILGRGKV")
"failed"
>>> data_value("WRKDIVLPKDQAKGVRPYNPKFKDSEYFSRYNALINDERLIEFAKKNNYKITFFPHPDIQQQIVDFEKHDYVEFADYNSSYQMLFNSSNIMITDFSSVAFDFAYEKKPVIYYQYEKSYHFKLDYYDYKKMGFGDVLENHNSLVDKVIYYMKNNSRMEDKYRKRVDNFFAYTDKNNRNRIYNAILE")
"not failed"
>>> data_value("MIFENRLALSAMAGVNNAEFCRKQKASLVILGGFNADRRALEAAEKAVKRGRKEFLFGIDGIEGEIKKLGRRKFAVNVRSSSLEGYLNVAELVAEFEGIIEINAHCRQPEFVEIGCGEWLLFNHERLVEIVSKTSRIAPTFVKIRGGHKLDYEKIARKLFDAGCLAIHVDAMIPGGGCDFSLIERISRIGNVIGNNSFVDIESGERIIMAGAKMASAARAVLRDENFFEKMLRSPLLSQPVELSCGRFRLEHHHHHH")
"not failed"
>>> data_value("MKRWGLIFPTLYFFFLFIMIFVFNFPREVTRQWMWIQVGGIVFMIALGLYFDGYASLKEVITIGAFTLLWLGLSFTVNIRKEYFTLLGLIIELVLDLALREGG")
"failed"
>>> data_value("MNTHYVGPVLYTPKENVSEKLLKLFDADQPIIFCYTARFYDNVGESGKAIFDNMIKIADKIDASIIISTGNKKDELLALDIASKELKSGKVSIVDYVPLDMAYEKSDLVIHHGGHGSCLAQFYYGVPSVIIPTHTEREYNARMCEKLHVGKMLPRRELNSANLKNCINDVLNDITYKKSVRDWKEKVSGLEHHHHHH")
"failed"

Give one value of protein production per listed sequence.
1. MNGMLLSRIKKKAMELAEDLKLVDFSFGLPYTWVLVEGIEGRALGVAMTLPEEVQRYTNSIEEPSLLEFIDKADSLNIIERTLGVAAINAVSQYYIDLREAKWIDVTELIQQDEIKRIAIIGNMPPVVRTLKEKYEVYVFERNMKLWDRDTYSDTLEYHILPEVDGIIASASCIVNGTLDMILDRAKKAKLIVITGPTGQLLPEFLKGTKVTHLASMKVTNIEKALVKLKLGSFKGFESESIKYVIEV
2. MEKRQDNNEIERRILKYEQYVKEHPKKAYGYYCLGRLHMMDGKYKLAEEYFKKSLAVDGNYTFSIIGLIEACVFRRKFLKAVYLFSKNRQKIIDKYIYRVKLVRGVSSFYSKSGFFRTEAKDFLSQLSLKNSIRSIKKLVDSEANNIVLKLILCMYYLNFGEKSFYIIQLFKTCIYWDGLEDSFRWALIRRLSEFGEKLYYDANIARKFATVPDASCTDEYVDLIFSSALDREKGGRMADIYRTAEKYNKNISPRLIWRYVKWSNENSFYDPSVYDCCKKLVDMGWMDSVVADTMLKFRERNAVKLGDETERALRLFGYMD
3. YDDEDYQAEQDRREEQRRAAIAQTGVEVIPVHGVLVSRGSHLNACETMTSYEGLRAALNKAITDPMVEHIVLDIDSPGGSAVGAFELAADIRAATKIKPITGLVNFMAYSGGYLIASACTEVVVSLTSGVGSIGVVASHMDRSKMIEGMGVKVTTVFAGAHKNDLSPNEPITEQSLQVLNEVVQESYQLFTTHVAEYRGRDVADIIATEAACYRGSSAIAIGLADRLESPQ

1: not failed; 2: failed; 3: failed

Summary for this sequence, MKTIIRQPQLYRFLKYCNESNLDKTVLDCGAGGDLPPLSIFVEDGYKTYGIEISDLQLKKAENFSRENNFKLNISKGDIRKLPFKDESMSFVYSYGTIFHMRKNDVKEAIDEIKRVLKPGGLACINFLTTKDERYNKGEKIGEGEFLQLERGEKVIHSYVSLEEADKYFKDMKVLFKEDRVVERINDGLKIKQGYVDYIAEKFSKSIL : protein production is not failed

----------
experiment: label from the status in PepcDB records
attribute-measured: protein production

>>> data_value("MKKGYMYIALTTIIFSTMEIALKLVSKSFNPIQLNFTRFFIGGLFLVPFALNTLHKRHLSISTKDLRFFALLGLLGTVISMSLYQLAVQNTKASVVAVLFSCNPVFVTILAFFLLREAIHKNNIAALILEVIGTIVIIDPLNTKLSILGLALTIASTLIFAAYGVFGKKKCAKYGGIVVTCFGFLFGSIEMLVLIGITHITPIANLFSSNGIAIFSNIPLFTGYSLKNLPLMCFICLINTGAGFACYFKAMEETSAQTTSLVFFFKPILAPILALILLHEIIPVNMIIGILFILAGSISSILPELLAQRQTKLEKTA")
"failed"
>>> data_value("MCLGMAGEHMAPNSKHLSLHMPVDFIDALAQAESIDEILKVVATWFMEMFVADRASITFPVNDSHLRVVALEGNRVIDVDAPVPIHGTMVGRVFSRGQAEICDDLAASTDLDCLILASRGLGSCLDAPLRSGRDCYGTINVGRRDRNGFTLADMRKIEALAMWIATLIRVHRQVERLTHLSRTDPLTQIMNRRAFTESFQTRRLEGERRRAEVGTGLGFAVVDIDHFKQINDTYGHDVGDVVLAFVGKMMNEFFRESDCVARFGGEEFCVLMQDVDEGGMQRLLERFRVALGDCVVTHSAGTVSITASIGAVLVKTSVAGIDRAFRSADLALYKAKADGRNRVRIAPSAEQSHAGNPANRLCYPG")
"failed"

----------
test: label from the status in PepcDB records
attribute-measured: protein production

Below, each entry is followed by its recorded protein production result.
>>> data_value("MSYSTFALCHWARDRQRGRKTVADMVHRMTQATARVIGLEDRGELAVGKRADINVIDLAQLALRPPQVCHDLPAGGRRLIQRATGYSLTMLAGEIVLRDDEPLEHHHHHH")
"not failed"
>>> data_value("IGIVNDMPLAVEALRRALAFEPQHQIVWVASNGAEAVTQCAADTPDVVLMDLLMPVMDGVEATRRIMAESPCAIVIVTVDIEQNVHRVFEAMGYGALDAVNTPALGIGNPQTAAAPLLRKIQNVGWLIGQRDNRGKVQVVPPKAGGARQRLVAIGASAGGPASLAVLLKQLPASFNAAVVLVQHVDEVFAAGMAEWLASESKLPVRLARDGEPPIPGQILLAGTNNHIRLLRNGSLVYTAEPRSFVYRPSIDVFFESVANYWRGDAVGVLLTGMGRDGAQGLKQMRERGFLTIAQDQASCAVYGMPKAAAAIDAAVQILSLEKIA")
"failed"
>>> data_value("MKYAIREYKGKNVDLSKLSSIIENYFREENFVTQSSQHPRGYVIQAKKGGIFRTILGMDRAFTIVLVGDSSDFKVQIGVGKWLQDLGVAAIEAFLITPVVAFVEVPESLWSFELEHEFWQFLENQINLGIQ")
"failed"
>>> data_value("MRGLSLSPVVLPEVRREAGVELRKARLEDVDAIYWLIRYWAEKGLMLVRSHSHLYENIRDFWVLEDEDGQIVGTVALHVLWRDLAEIRGLAVHPTRQGQGLGRWLVLGAEREARDLGLPRVFAWTLQVNFFRALGYRVTSR")
"failed"
>>> data_value("MVLYFLSSIIIAPIKTGDKAPQVDECCLKTVSDLTFFTNNEKYIWPVPDFCVRMELLAFEAIPQLSKKIIEDIPGAYQGCPRMCKVKFKKNHLKGFTLDTIYAELGTTHVIDCIVTPRIEEQELMKTIMEEEDDDDVADVVVESWLKRHKEGRLIMFDELYQQDIQTLKITSSR")
"failed"

# per-item lookup of protein production; items listed below
1. MKDSDKEKENGKMGCWSIEHVEQYLGTDELPKNDLITYLQKNADAAFLRHWKLTGTNKSIRKNRNCSQLIAAYKDFCEHGTKSGLNQG
2. LSEVEFVEFQKENFSLLIDARSPREFLHSHLIGALNFYALNDEEYQEIGTIYKKNQALAKAMGASYICQNTTKHILEITQNFRIGEKVGIYCSRGGLRSKSIAVILSELGFRVVRLKGGFKAYRTFVTHYFEN
3. MPMMNLIYLHGFRSSSLSIKGQQLKHYCQAFPYIQVHLPDLNLPPHEVIKKIENMIQSMDQVALIGSSLGGFYATQLVAKYQIPAVLINPAMRPWQLFRQLFSDQTLPYTVCETWTLDEQQLTEMEKIAVPVVQAADKILVLLQQGDEVLDYREAERYYSQPAHPSLIFTDAHGNHAMEDFENKLPLILAFL

1: not failed; 2: failed; 3: failed

Would you mind giving protein production for every sequence in the list below?
1. MHALYITHPQVKIDPAVPVPEWGLSERGAERAREASRLPWAKALRRIVSSAETKAIETAHMLAETSGAAIEIIEAMHENDRSATGFLPPPEFEKAADWFFAHPEESFQGWERAIDAQARIVEAVKAVLDRHDARQPIAFVGHGGVGTLLKCHIEGRGISRSKDQPAGGGNLFRFSIAEFSLAAASPTCDWTAMETWQG
2. MGHHHHHHSHMNSAEQTVTWLITLGVLESPKKTISDPEGFLQASLKDGVVLCRLLERLLPGTIEKVYPEPRSESECLSNIREFLRGCGASLRLELLFPPSQPPQHLVTTILLSASTFDANDLYQGQNFNKVLSSLVTLNKVTADIGLGSDSVCARPSSHRIKSFDSLGSQSLHTR
3. MELKQSLSTHLEAEKPLRRYGAVEETAWKTERLGRNQLDIISMAETTMMPEEIELEMAKIQRLREVLVRRESELRFMMDDIQLCKDIMDLKQELQNLVAIPEKEKTKLQKQREDELIQKIHKLVQKRDFLVDDAEVERLREQEEDKEMADFLRIKLKPLDKVTKSPASSRAEKKAEPPPSKPTVAKTGLALIKDCCGATQCNIM
4. GREQMASFESAYVALSRMKQHVQVYTDNREGWIKAIKNSPEKATAHDILEPRNDRAVKTADLLFGRARPLDETAAGRAALQQSGLAQGSSPGKFISPGKKYPQPHVALPAFDKNGKAAGIWLSPLTDRDGRLEAIGGEGRIMGNEDARFVALQNSRNGESLLAGNMGEGVRMARDNPDTGVVVRLAGDDRPWNPGAMTGGRVWAEPAPVAPVPQAGADIILPPEVLAQRAAEEQQRREMEKKAEQTAREMAGEARKAG
5. MTNKGYFWVVASLVLASAAQVLMKSGMLALPSISMTHWPSLSTLMAGWPVVAVLVGIICYGLSMVCWFMVLRYLPLSRAYPLISLSYAVVYLAAVFLPWLNEPMSLRKNLGVLIILLGVWLVSRDAQATK
6. MKLGFIGFGEAASAIASGLRQAGAIDMAAYDAASAESWRPRAEELGVSCKASVAEVAGECDVIFSLVTAQAALEVAQQAGPHLCEGALYADFTSCSPAVKRAIGDVISRHRPSAQYAAVAVMSAVKPHGHRVPLVVDGDGARRFQAAFTLYGCRIEVLDGEVGGAALLKMCRSAVLKGLEALFLEALAAAEKMGLADRVLASLDASFPEHHLRDLALYLVERNLEHADRRAHELGEVAATLCSVGVEPLVAEAGYRRLTRVAQVRAALKQRPGDVRAWLRSLANAEDA
7. MLDAAIKALTQILSPPMRSILWRSVGFALALIAVAAIGLQRLLSWAATSSELWAEAALGGFQTPLNILSWVLSIAAGLGIVVGAVFLMPAVTSLVAGIFVDEAAEHVERESYPHEAPGVALPIGLATWETVKTALLTILVYLVALPFLFVAGAGAIVFFVATAWLLGREYFELAAMRFRTAPEAKAMRRDNATTVFIGGLIIAAFVSIPIVNLATPLFGMAFMVHLHKRLSGSRPEVLAPDQRSMLR

1. not failed
2. failed
3. failed
4. failed
5. failed
6. not failed
7. failed
